experiment: In vitro inhibition of translation in luciferase SP6 control plasmid; type: functional
pIC50: −log10 of the molar value.
Give class 1 when the value for pIC50 is at least 5. Give class 0 when it is less.

>>> label("NC(N)=NCCC[C@@H]1COc2ccc(NC(=O)c3ccc4nc(O)c(O)nc4c3)cc2C(=O)NC[C@H](N)C(=O)N[C@H](Cc2ccc(N)cc2)C(=O)N1")
"class 0"
>>> label("NC(N)=NCCC[C@@H]1COc2ccc(NC(=O)c3ccc4nc(O)c(O)nc4c3)cc2C(=O)NC[C@H](N)C(=O)N[C@H](Cc2ccc(O)cc2)C(=O)N1")
"class 0"
>>> label("NC[C@H]1O[C@H](O[C@H]2[C@H](O)[C@@H](O[C@H]3O[C@H](CO)[C@@H](O)[C@H](N)[C@H]3O)[C@H](N)C[C@@H]2N)[C@H](O)[C@@H](O)[C@@H]1O")
"class 1"
>>> label("NCCCC[C@H]1COc2ccc(NC(=O)c3ccc4nc(O)c(O)nc4c3)cc2C(=O)NC[C@@H](N)C(=O)N[C@@H](Cc2ccccc2)C(=O)N1")
"class 0"
>>> label("NC(N)=NCCC[C@H]1COc2ccc(NC(=O)c3ccc4nc(O)c(O)nc4c3)cc2C(=O)NC[C@@H](N)C(=O)N[C@@H](Cc2ccc(O)cc2)C(=O)N1")
"class 0"
